target: FhGALE (Fasciola hepatica)
measurement label: Kd (µM)
Give the number; µM is assumed, so skip it.

1. CC(C)CC(NC(=O)OCc1ccccc1)C(=O)NC(Cc1c[nH]c2ccccc12)C(=O)O (centres unmarked) [NSC335979]	210

Proceeding to the next molecule to report its Kd.
Query: Check FhGALE (Fasciola hepatica) data and give Kd for O=C1NC(=O)C(F)C(C(=O)O)N1 (centres unmarked) [NSC31712] .
Response: 1900

----------
Catalogue of IC50 readings, one per entry.
target: FhGALE (Fasciola hepatica UDP-galactose 4’-epimerase) (Fasciola hepatica); assay: biochemical; type: biochemical
Give the number; nM is assumed, so skip it.

# count of solved cases: 3
1) CC(C)c1nc2c([nH]1)c(=O)n(C)c(=O)n2C [NSC14303]	300
2) CC1(C)OC2C(CO)OC(n3cnc4c(=S)nc[nH]c43)C2O1 (stereo not shown) [NSC27305]	0.11
3) Cn1c(=O)c2[nH]c(COc3ccc(C(C)(C)C)cc3)nc2n(C)c1=O [NSC36525]	260000

Query: Name the recorded IC50 of the compound listed here: CCOc1ccc(NC(=O)c2cc3ccccc3cc2O)cc1 [NSC50690]
Response: 61
